Species: Homo sapiens
experiment: Selectivity factor, ratio of IC50 for Bad-derived peptide from Bcl-XL (unknown origin) to IC50 for displacement of Bax-derived peptide from Bcl-2 (unknown origin)
property name: Ratio IC50

a: CN(CCO)c1ccc(S(=O)(=O)NC(=O)c2ccc(N3CCN(CC4=C(c5ccc(Cl)cc5)CCC(C)(C)C4)CC3)cc2)cc1S(=O)(=O)C(F)(F)F
b: CC1(C)CCC(c2ccc(Cl)cc2)=C(CN2CCc3ccc(C(=O)NS(=O)(=O)c4ccc(N[C@H](CCN5CCOCC5)CSc5ccccc5)c(S(=O)(=O)C(F)(F)F)c4)cc3CC2)C1
Exercise: Please state the entry with greater Ratio IC50 among a and b . # respond with the chosen item's label
Key: a

====

Organism: Homo sapiens
experiment: Selectivity factor, ratio of IC50 for Bad-derived peptide from Bcl-XL (unknown origin) to IC50 for displacement of Bax-derived peptide from Bcl-2 (unknown origin)
property name: Ratio IC50

CC1(C)CCC(c2ccc(Cl)cc2)=C(CN2CCN(c3ccc(C(=O)NS(=O)(=O)c4ccc(NC5(CN6CC(F)(F)C6)CC5)c(S(=O)(=O)C(F)(F)F)c4)cc3)CC2)C1 : 9.83

P: CC1(C)CCC(c2ccc(Cl)cc2)=C(CN2CCN(c3ccc(C(=O)NS(=O)(=O)c4ccc(NC5(CN6CCOCC6)CC5)c(S(=O)(=O)C(F)(F)F)c4)cc3)CC2)C1
Q: CC1(C)CCC(c2ccc(Cl)cc2)=C(CN2CCN(c3ccc(C(=O)NS(=O)(=O)c4ccc(OCC5(CN6CC(F)(F)C6)COC5)c(S(=O)(=O)C(F)(F)F)c4)cc3)CC2)C1
Exercise: Given P and given Q , which shows the smaller recorded Ratio IC50? # respond with the chosen item's label
Key: P
